- Test system: hydroxyproline (a specific marker for collagen) in mouse lung
- assay.notes: Bleomycin induced lung fibrosis model: hydroxyproline assay
- Format: in vivo
- condition: 10 mg/kg, Oral, Once daily; relative to levels induced by Bleomycin in vehicle treated animals; *p < 0.05
- Source text: Preclinical pulmonary fibrosis can be induced by single instillation of Bleomycin to the mouse lung. A 15-day Bleomycin protocol was developed to evaluate compounds of the invention in vivo for their ability to inhibit TGFβ secretion and collagen deposition in the mouse lung. On the day before Bleomycin instillation, compounds were administrated to mice based on the appropriate route and frequency. […]
Where a name gives a salt, the structure may show the parent alone.
Form field: % inhibition of hydroxyproline in lung (one value per entry).

compound	% inhibition of hydroxyproline in lung
C[C@@H](O)CN1CCN(c2ncc(Oc3cc(CN4CCC(CC(=O)O)CC4)cc(-c4cc(Cl)cc(Cl)c4)n3)cn2)CC1	16* %
CC(=O)NCC1CCN(Cc2cc(Oc3cnc(N4CCN(CCC(C)C(=O)O)CC4)nc3)nc(-c3cc(Cl)cc(Cl)c3)c2)CC1 (stereo not shown) [Example 369, hydrochloride]	62* %
CN1CCN(c2ncc(Oc3cc(CN4CCC(CC(=O)O)CC4)cc(-c4cc(Cl)cc(Cl)c4)n3)cn2)CC1	46* %
CC(CC1CCN(Cc2cc(Oc3cnc(N4CCN(C)CC4)nc3)nc(-c3cc(Cl)cc(Cl)c3)c2)CC1)C(=O)O (stereo in doubt)	54* %

---

Quick list: EC50 per entry.
- assay.target: furin (endogenous protease) in U20S cells (Homo sapiens, UniProt P09958)
- Construct: the endogenous protease cleaves GFP; endogenous in cells; host or cells: U2OS cells transduced with a BacMam reporter
- Sequence (P09958 108-794): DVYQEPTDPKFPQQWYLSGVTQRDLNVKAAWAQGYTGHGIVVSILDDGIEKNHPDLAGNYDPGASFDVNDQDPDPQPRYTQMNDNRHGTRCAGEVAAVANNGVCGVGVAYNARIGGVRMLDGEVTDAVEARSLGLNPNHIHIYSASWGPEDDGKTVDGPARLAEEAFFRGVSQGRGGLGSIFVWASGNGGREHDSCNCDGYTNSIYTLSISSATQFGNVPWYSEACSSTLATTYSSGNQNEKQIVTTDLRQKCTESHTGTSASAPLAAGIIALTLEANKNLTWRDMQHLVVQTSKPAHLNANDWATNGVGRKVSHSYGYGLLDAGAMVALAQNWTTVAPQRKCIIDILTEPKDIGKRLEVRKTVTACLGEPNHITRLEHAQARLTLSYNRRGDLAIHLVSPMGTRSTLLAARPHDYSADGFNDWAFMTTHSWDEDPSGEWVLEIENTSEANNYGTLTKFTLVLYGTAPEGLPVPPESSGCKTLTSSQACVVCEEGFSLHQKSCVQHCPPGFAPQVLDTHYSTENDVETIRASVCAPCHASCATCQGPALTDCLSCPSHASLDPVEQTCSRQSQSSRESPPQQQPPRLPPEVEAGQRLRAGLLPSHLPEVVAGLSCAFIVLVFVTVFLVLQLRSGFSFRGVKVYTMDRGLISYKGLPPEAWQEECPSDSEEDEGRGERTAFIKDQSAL
- assay.notes: Furin cell-based assay (image-based, Golgi-targeted GFP with BMP10 furin/PCSK cleavage site)
- condition: 24-hour incubation, read-out: furin golgi cell pXC50 (converted)

molecule	EC50 [µM]
CNC(=O)OCC1CCN(Cc2cc(Oc3cnc(N4CCN(C)CC4)nc3)nc(-c3cc(Cl)cc(Cl)c3)c2)CC1 [Example 66]	0.00794
CN1CCN(c2ncc(Oc3cc(CN4CCC(CC(=O)O)CC4)cc(-c4cc(Cl)cc(Cl)c4)c3)cn2)CC1 [Example 117]	0.0316
CN1CCCN(c2ncc(Oc3cc(CN4CCC(CC(=O)O)CC4)cc(-c4cc(F)cc(Cl)c4)n3)cn2)CC1 [Example 374]	0.158
O=C(O)[C@H]1[C@@H]2CCN(Cc3cc(Oc4cnc(N5CCN6CCC5C6)nc4)nc(-c4cc(Cl)cc(Cl)c4)c3)CC[C@@H]21 (stereo partly shown) [Example 337]	0.00794

---

- assay.target: furin (endogenous protease) in U20S cells (Homo sapiens)
- Construct: the endogenous protease cleaves GFP; endogenous in cells; host or cells: U2OS cells transduced with a BacMam reporter
- assay.notes: Furin cell-based assay (image-based, Golgi-targeted GFP with BMP10 furin/PCSK cleavage site);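 note: Read-out is mean GFP fluorescence of Golgi puncta per cell by high-content imaging, retained when furin inhibited, over an eleven-point 0.00017–10 µM series, four-parameter fit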
- condition: 24-hour incubation, read-out: furin golgi cell pXC50 (converted)
The following compounds are shown together with reported EC50 values.
experimental.endpoint: EC50 (nM)

> print(dat)
                                   compound  measured.result
1  CC(=O)NCC1CCN(Cc2cc(Oc3ccc(N4CCN(CCN(C)S(C)(=O)=O)CC4)nc3)nc(-c3cc(Cl)cc(Cl)c3)c2)CC1 [Example 32]               10
2  COC(=O)C(C)CCN1CCN(c2ncc(Oc3cc(CN4CCC(CNC(C)=O)CC4)cc(-c4cc(Cl)cc(Cl)c4)n3)cn2)CC1 (stereo not shown) [Example 368]             3.98
3  CC(=O)NCC1CCN(Cc2cc(Oc3cnc(N4CCN(CCCC(N)=O)CC4)nc3)nc(-c3cc(Cl)cc(Cl)c3)c2)CC1 [Example 96]             1.58
4  CN1CCCN(c2ncc(Oc3cc(CN4CCC(CC(=O)O)CC4)cc(-c4cc(Cl)cc(Cl)c4)n3)cn2)CC1 [Example 126]             6.31
5  CNCCC(C)N1CCN(c2ncc(Oc3cc(CN4CCC(CC(=O)O)CC4)cc(-c4cc(Cl)cc(Cl)c4)n3)cn2)CC1 (stereo not shown) [Example 239]             25.1
6  CN1CCN(c2ncc(Oc3cc(CN4CCC(CC(=O)O)CC4)cc(-c4cc(Cl)cc(Cl)c4)n3)cn2)CC(O)C1 (stereo not shown) [Example 226]             15.8
7  CC(=O)NCC1CCN(Cc2cc(Oc3cnc(N4CCN(CCC(C)C(=O)O)CC4)cn3)nc(-c3cc(Cl)cc(Cl)c3)c2)CC1 (stereo not shown) [Example 396]               10

All values here come from patent US11773078B2.
